IC50 values by entry
Tested on: HepG2
Experiment: Cytotoxicity against human HepG2 cells assessed as cell viability after 24 hrs by crystal violet staining assay
Format: functional, cell-based
Experimental context: HepG2, 24 h
Unit µM implied. Number only.

chemical_string=O=C(N/N=C1\C(=O)Nc2ccc(Br)cc21)C(=O)N/N=C1\C(=O)Nc2ccc(Br)cc21 attribute_measured=IC50 result_value=77.8

Moving on to another compound below.
Fill in: IC50 of Cc1[nH]c(C(=O)N/N=C2\C(=O)Nc3ccc(F)cc32)c(C)c1C(=O)N/N=C1\C(=O)Nc2ccc(F)cc21 is ___
78.4

----------
System tested: Cyclin-dependent kinase 2/cyclin E1 (Homo sapiens, UniProt P24941)
Experiment: Inhibition of GST-tagged recombinant human CDK2/cyclin E expressed in insect SF-9 cells after 10 mins by scintillation counting analysis in presence of [gamma-33P]-ATP
Attribute measured: IC50 (nM)
Unit nM implied. Number only.

Fill in: IC50 of O=C1/C(=C2\Nc3ccccc3C2=O)Nc2ccccc21 [INDIGO] is ___
1000
